Values from PubChem BioAssay (NCI)

Test system: SK-MEL-2 melanoma
Experiment: NCI-60 one-dose screen, 48 h (100 = growth as untreated, 0 = no growth, -100 = all killed)
Conditions: 10 µM unless noted
This is part of a sample that, as a whole, favours compounds with a hit. Of some 83,000 tested, about 20% had one in any assay.
Endpoint label: growth (%)
# value in %; strip the unit string

Before answering, review these 10 worked examples.
- Oc1ccccc1/C=N/c1ccccn1: 97.8
- Nc1nc(Cl)c2c(C(F)(F)F)cn(CC3CCNCC3)c2n1: 87.9
- COc1cc(-c2nc3sc(C)cn3c2/C=C2\C(=O)Nc3ccccc32)c(Br)c(OC)c1OC: 74.3
- COc1cc([C@@H]2c3cc4c(cc3C(OC3O[C@@H]5COC(C)O[C@H]5[C@H](O)[C@H]3O)C3COC(=O)[C@@H]32)OCO4)cc(OC)c1O (some centres undefined): 74.6
- C#CCn1c(-c2cc(OC)c(OC)cc2Br)nc(-c2ccccc2)c1-c1ccccc1: 28.1
- CC(C)[C@@H]1NC(=O)[C@]2(C)CSC(=N2)c2ccnc(c2)CNC(=O)C[C@@H](/C=C/CCS)OC1=O: -28.2
- CN[C@@H](CCCNC(N)=NC/C=C(/C)CCC=C(C)C)C(=O)N(C)[C@@H](CCCNC(N)=NCC=C(C)C)C(=O)N[C@H](C)[C@H](OS(=O)(=O)O)c1ccc(OS(=O)(=O)O)c(COS(=O)(=O)O)c1: 105
- COc1ccc(-c2nn(-c3ccc(NC(=O)c4cc(C(F)(F)F)cc(C(F)(F)F)c4)cc3)cc2-c2ccncc2)cc1Cl: 89.9
- Clc1ccc2c(NCCNc3nc(Cl)nc4ccccc34)ccnc2c1: -73.2
- Cc1[nH]n(C(=O)c2ccncc2)c(=O)c1N=Nc1ccc(S(=O)(=O)Nc2ccncn2)cc1: 116

Given item CC(C(=O)O)N1C(N)=NNC1c1ccccc1O (centres undefined) , the value recorded as its growth is 99.7

Given item `O=C1CCC(=O)N1C1CCCCC1` , the value recorded as its growth is 103

Given item `Cc1ccc(=O)n(-c2ccc(Br)cc2F)c1` , the value recorded as its growth is 116
